- Target system: MAPK14 (human)
- Measurement protocol: radiometric filter-binding kinase assay
- Measurement conditions: compound 100.0 µM; ATP 50 µM
Observation type: inhibition (%)

// known answers, use as guide
### Prompt Data request, read-out inhibition, for "Nc1cnc2c(-c3c(F)cccc3F)cccn2c1=O"
### Response 0

### Prompt And then "Nc1nc2cnc(-c3ccccc3)cn2n1" , what is it?
### Response 27

### Prompt How about this compound: "CC(=O)Nc1nc2cnc(-c3c(C)cccc3C)cn2n1"
### Response 0

### Prompt Same thing, different compound: "Cc1cccc(C)c1-c1cn2nc(N)nc2cn1"
### Response 35

P = CC(C)(C)Nc1c(COCc2ccccc2)nc2[nH]cnn12
Q = O=c1c(NC(=S)NCc2ccccc2)cnc2[nH]ccn12
R = O=c1cc(-c2ccccc2F)nc2[nH]ccn12
### Prompt Sort the compounds on inhibition; start with the lowest figure. Write the labels out in the order the request specifies.
### Response Q, P, R
(Q: 0%, P: 5%, R: 21%)

====

- Target system: NEK6 (human)
- Measurement protocol: radiometric filter-binding kinase assay
- Measurement conditions: compound 100.0 µM; ATP 50 µM
Observation type: inhibition (%)

### Prompt Item "O=C(c1cccc(-c2cc3c(=O)[nH]cnc3s2)c1)N1CCOCC1" has what recorded inhibition?
### Response 44

### Prompt Next up: "CC(C)(C)Nc1c(COCc2ccccc2)nc2[nH]cnn12"
### Response 0

### Prompt Now the same for "Cc1cccc(C)c1-c1cn2nc(N)nc2cn1"
### Response 3

### Prompt How about this compound: "Nc1cnc2c(-c3c(F)cccc3F)cccn2c1=O"
### Response 0

### Prompt Now try "Nc1nc2cnc(-c3ccccc3)cn2n1" .
### Response 1

1 = CC(C)(C)Nc1c(C2CC2)nc2[nH]cnn12
2 = O=c1cc(-c2ccccc2F)nc2[nH]ccn12
### Prompt Given the listed records, identify the one among 1 and 2 with higher inhibition. Kindly give the label for the entry you pick.
### Response 2
(2: 7%, 1: 0%)

====

- Target system: MAP2K1 (human) (UniProt Q02750)
- Sequence (Q02750 whole entry, looked up): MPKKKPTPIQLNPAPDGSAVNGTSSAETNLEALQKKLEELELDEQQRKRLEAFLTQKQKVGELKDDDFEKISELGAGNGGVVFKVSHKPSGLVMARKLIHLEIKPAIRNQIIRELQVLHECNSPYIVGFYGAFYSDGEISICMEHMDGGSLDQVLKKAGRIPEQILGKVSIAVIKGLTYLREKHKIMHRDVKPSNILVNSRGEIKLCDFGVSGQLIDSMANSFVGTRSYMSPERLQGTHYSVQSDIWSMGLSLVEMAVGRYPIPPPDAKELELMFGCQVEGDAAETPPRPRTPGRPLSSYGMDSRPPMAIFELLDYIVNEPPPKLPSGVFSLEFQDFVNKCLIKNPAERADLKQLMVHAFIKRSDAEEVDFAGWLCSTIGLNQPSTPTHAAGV
- Measurement protocol: radiometric filter-binding kinase assay
- Measurement conditions: compound 100.0 µM; ATP 5 µM
Observation type: inhibition (%)

# example entries with known answers
### Prompt Could you share which inhibition value was measured for "O=C(c1cccc(-c2cc3c(=O)[nH]cnc3s2)c1)N1CCOCC1" ?
### Response 31

### Prompt # repeat for "COc1ccc(NC(=S)Nc2cnc3[nH]cnn3c2=O)cn1"
### Response 11

### Prompt Would you kindly repeat that for "Nc1nc2cnc(-c3ccccc3)cn2n1" ?
### Response 37

### Prompt Repeat for the following compound: "CC(=O)Nc1nc2cnc(-c3c(C)cccc3C)cn2n1"
### Response 0

### Prompt Repeat for the following compound: "Nc1cnc2c(-c3c(F)cccc3F)cccn2c1=O"
### Response 72

I = O=C(Nc1cnc2[nH]cnn2c1=O)c1ccccc1
II = CC(C)(C)Nc1c(C2CC2)nc2[nH]cnn12
III = CC(=O)Nc1nc2cnc(-c3ccccc3)cn2n1
IV = O=c1c(NC(=S)NCc2ccccc2)cnc2[nH]ccn12
V = CC1CN(c2nc3ccccn3c(=O)c2N)CC(C)O1 (stereo not given)
### Prompt Order these by inhibition, descending, and give the full ranking. Reply with the item labels sorted in the order that was asked for.
### Response IV, III, I, V, II

A = O=C(Nc1cnc2[nH]ccn2c1=O)c1ccccc1
B = CC(C)(C)Nc1c(COCc2ccccc2)nc2[nH]cnn12
### Prompt Hi, I'm comparing A with B and wondering which one has the bigger number for inhibition. Any idea? Kindly state the label of the option you pick.
### Response A

a = COc1ccc(-c2cc3c(=O)[nH]cnc3s2)cc1OC
b = O=c1cc(-c2ccccc2F)nc2[nH]ccn12
### Prompt Kindly identify which of a and b has the larger recorded inhibition value. Refer to your chosen entry by its label in the reply.
### Response b
